Reference source: patent US20200288711A1

# Test system: Setaria faberi (SETFA)
# run_description: B2 post-emergence herbicidal activity
# Format: in vivo
# Design: key: 5=total damage to plant; 0=no damage to plant
# condition_label: Test 2b, rate 1000 g/ha, evaluated after 13 days, score 0-5 (5=total damage, 0=no damage)
Below, each entry is listed with its recorded Control of weed species after post-emergence application, SETFA.
property_measured: Control of weed species after post-emergence application, SETFA

{"molecule": "CC(C)OC(=O)Nc1cnc(-c2cncc(F)c2)nc1C(F)(F)F [Compound E14]", "test_system": "Setaria faberi (SETFA)", "value_observed": 5}
{"molecule": "CC(C)(C)OC(=O)Nc1cnc(-c2cncnc2)nc1C(F)(F)F [Compound E11]", "test_system": "Setaria faberi (SETFA)", "value_observed": 4}
{"molecule": "C=CCN(C(=O)OC(C)(C)C)c1cnc(-c2cncnc2)nc1C [Compound E6]", "test_system": "Setaria faberi (SETFA)", "value_observed": 5}
{"molecule": "COC(=O)Nc1cnc(-c2cncc(F)c2)nc1C(F)(F)F [Compound E21]", "test_system": "Setaria faberi (SETFA)", "value_observed": 4}
{"molecule": "CCOC(=O)Nc1cnc(-c2cncc(F)c2)nc1C(F)(F)F [Compound E19]", "test_system": "Setaria faberi (SETFA)", "value_observed": 5}
{"molecule": "CC(C)OC(=O)N(C(=O)OC(C)C)c1cnc(-c2cncc(F)c2)nc1C(F)(F)F [Compound E22]", "test_system": "Setaria faberi (SETFA)", "value_observed": 1}
{"molecule": "Cc1nc(-c2cncnc2)ncc1NC(=O)OC(C)(C)C [Compound E7]", "test_system": "Setaria faberi (SETFA)", "value_observed": 4}
{"molecule": "CCC(C)OC(=O)Nc1cnc(-c2cncc(F)c2)nc1C(F)(F)F (stereo not shown) [Compound E18]", "test_system": "Setaria faberi (SETFA)", "value_observed": 5}
{"molecule": "CC(C)(C)OC(=O)Nc1cnc(-c2cncc(F)c2)nc1C(F)(F)F [Compound E4]", "test_system": "Setaria faberi (SETFA)", "value_observed": 5}
{"molecule": "O=C(Nc1cnc(-c2cncc(F)c2)nc1C(F)(F)F)N1CCOCC1 [Compound E8]", "test_system": "Setaria faberi (SETFA)", "value_observed": 5}
